Reference for the values: patent US20240059703A1

IC50 listing for selected compounds.
Target: KRAS G12C (Homo sapiens (Human), UniProt P01116, C118A/G12C)
Sequence (P01116 other isoform, or with tags, fused parts or gaps G12C/C118A): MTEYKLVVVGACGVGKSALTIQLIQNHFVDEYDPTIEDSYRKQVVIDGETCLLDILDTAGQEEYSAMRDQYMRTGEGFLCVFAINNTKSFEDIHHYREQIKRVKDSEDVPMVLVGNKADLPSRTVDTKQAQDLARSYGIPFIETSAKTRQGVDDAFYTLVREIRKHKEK
Test: 2 h coupled exchange assay
Assay type: biochemical
Conditions: Avg 2 h Coupled exchange IC50, 2 h compound pre-incubation
Description: The term “2 h coupled exchange assay” or “20 h coupled exchange assay” as used herein refers to the assay described in the Section entitled “BIOLOGICAL EVALUATION.”
// note: answer is a bare numeric in nM

{"compound": "C=CC(=O)N1CC2(CCN(c3nc4c(c(-c5c(C)ccc6cnn(C)c56)c3C)COC(C)(C)C4)C2)C1 [Example 14-37]", "reportedProperty": "IC50", "readoutNumber": 478}
{"compound": "C=CC(=O)N1CC2(CCN(c3nc4c(c(-c5c(C)c(Cl)cc6cnn(C)c56)c3C)COC(C)(C)C4)C2)C1 (single isomer, unassigned) [Example 14-88]", "reportedProperty": "IC50", "readoutNumber": 10400}

Next compound, IC50 to be filled in.
What IC50 appears in the records for this compound with KRAS G12C (Homo sapiens (Human), UniProt P01116, C118A/G12C)? C=CC(=O)N1CC2(CCN(c3nc4c(c(-c5c(C)ccc6[nH]ncc56)c3C)CCN(C3COC3)C4)C2)C1
376

----------
Biological target: KRAS G12C (Homo sapiens (Human), UniProt P01116, C118A/G12C)
Assay: 2 h coupled exchange assay
Format: biochemical
Conditions: Avg 2 h Coupled exchange IC50, 2 h compound pre-incubation
pIC50 listing for selected molecules.
// pIC50 is dimensionless: -log10 of concentration (M)

{"molecule": "C=CC(=O)N1CC2(CCN(c3nc4cc(-n5cncc5C)ccc4c(-c4ccccc4Cl)c3C#N)C2)C1", "pIC50": 6.90}
{"molecule": "C=CC(=O)N1CC2(CCN(c3nc4c(c(-c5c(C)ccc6cnn(C)c56)c3C)COC(C)(C)C4)C2)C1 (single isomer, unassigned) [Example 14-99]", "pIC50": 7.15}
{"molecule": "C=CC(=O)N1CC2(CCN(c3nc4c(c(-c5c(F)cccc5Cl)c3C#N)CCC(c3scnc3C)=C4)C2)C1", "pIC50": 6.74}

What pIC50 appears in the records for this molecule with KRAS G12C (Homo sapiens (Human), UniProt P01116, C118A/G12C)? C=CC(=O)N1CC2(CCN(c3nc4cc(-c5ccnn5C)ccc4c(-c4ccccc4Cl)c3C)C2)C1
6.55

Further, for C=CC(=O)N1CC2(CCN(c3nc4c(c(-c5cc(O)ccc5C)c3F)C[C@H]3C[C@@H]4C3(C)C)C2)C1 (single isomer, unassigned) [Example 14-60] ?
5.47

----------
pIC50 listing for selected compounds.
Biological target: KRAS G12C (Homo sapiens (Human), UniProt P01116, C118A/G12C)
Test: 2 h coupled exchange assay
Type: biochemical
Details: Avg 2 h Coupled exchange IC50, 2 h compound pre-incubation, SOS-mediated nucleotide exchange
// pIC50 is dimensionless: -log10 of concentration (M)

{"compound": "C=CC(=O)N1CC2(CCN(c3nc4c(c(-c5cc(O)cc6ccccc56)c3C#N)C[C@H]3C[C@@H]4C3(C)C)C2)C1 (single isomer, unassigned) [Example 13-130]", "assayedTarget": "KRAS G12C (Homo sapiens (Human), UniProt P01116, C118A/G12C)", "pIC50": 4.88}
{"compound": "C=CC(=O)N1CC2(CCN(c3nc4c(c(-c5cc(O)cc6ccccc56)c3C#N)[C@H]3CC[C@@H]4C3)C2)C1 (single isomer, unassigned) [Example 2-40]", "assayedTarget": "KRAS G12C (Homo sapiens (Human), UniProt P01116, C118A/G12C)", "pIC50": 7.34}

Next compound, pIC50 to be filled in.
Entry C=CC(=O)N1CC2(CCN(c3nc4c(c(-c5c(Cl)ccc6ccn(C)c56)c3C#N)COC(C)(C)C4)C2)C1 : reported pIC50 = ?
6.61
